What activity at 10 µM was measured for each of the following?
Tested on: K-562
assay: NCI60 one-dose screen
Type: cell-based
applied_conditions: Homo sapiens, K562, read-out: Growth percent
Your answer should be a plain number; it is taken to be in %.

**Query** Write down activity at 10 µM measured for item `CC[C@]12C=CCN3CC[C@@]4(c5ccc(OC)cc5N(C)[C@H]4[C@@](O)(C(=O)OC)[C@@H]1OC(=O)CCC[P+](c1ccc(F)cc1)(c1ccc(F)cc1)c1ccc(F)cc1)[C@@H]32`
**Result** 21.6

**Query** Supply activity at 10 µM value. Item: CC[C@]12C=CCN3CC[C@@]4(c5ccc(OC)cc5N(C)[C@H]4[C@@](O)(C(=O)OC)[C@@H]1OC(=O)CCCC[P+](c1ccccc1)(c1ccccc1)c1ccccc1)[C@@H]32 [compound 4, reference compound]
**Result** 21.7

**Query** Report measured activity at 10 µM; entry is CCC12C=CCN3CCC4(c5ccc(OC)cc5N(C)C4C(O)(C(=O)OC)C1OC(=O)CCC[P+](c1ccc(C)cc1)(c1ccc(C)cc1)c1ccc(C)cc1)C32 (stereo not drawn)
**Result** -13.1

---

System: 786-0
assay: NCI60 one-dose screen
Assay type: cell-based
applied_conditions: Homo sapiens, 786-0, read-out: Growth percent
Record form. Attribute: activity at 10 µM. Fill in for each entry.
Give the number; % is assumed, so skip it.

**Query** Return the recorded activity at 10 µM value; entry: `CC[C@]12C=CCN3CC[C@@]4(c5ccc(OC)cc5N(C)[C@H]4[C@@](O)(C(=O)OC)[C@@H]1OC(=O)CCC[P+](C1CCCCC1)(C1CCCCC1)C1CCCCC1)[C@@H]32`
**Result** -16.2

**Query** Give the measured activity at 10 µM for CC[C@]12C=CCN3CC[C@@]4(c5ccc(OC)cc5N(C)[C@H]4[C@@](O)(C(=O)OC)[C@@H]1OC(=O)CCCC[P+](c1ccc(C)cc1)(c1ccc(C)cc1)c1ccc(C)cc1)[C@@H]32 [10a]
**Result** -91

**Query** Report activity at 10 µM, nothing else, for this compound: CCC12C=CCN3CC[C@@]4(c5ccc(OC)cc5N(C)[C@H]4[C@@](O)(C(=O)OC)[C@@H]1OC(C)=O)[C@@H]32 (stereo partly drawn)
**Result** 104

**Query** Indicate the recorded activity at 10 µM value for this compound: CC[C@]12C=CCN3CC[C@@]4(c5ccc(OC)cc5N(C)[C@H]4[C@@](O)(C(=O)OC)[C@@H]1OC(=O)CCCC[P+](C1CCCCC1)(C1CCCCC1)C1CCCCC1)[C@@H]32 [10d]
**Result** -36

**Query** Complete the entry with activity at 10 µM for `CC[C@]12C=CCN3CC[C@@]4(c5ccc(OC)cc5N(C)[C@H]4[C@@](O)(C(=O)OC)[C@@H]1OC(=O)CCC[P+](c1ccc(F)cc1)(c1ccc(F)cc1)c1ccc(F)cc1)[C@@H]32`
**Result** 80.9

**Query** Read the entry CCC12C=CCN3CCC4(c5ccc(OC)cc5N(C)C4C(O)(C(=O)OC)C1OC(=O)CCC[P+](c1ccc(C)cc1)(c1ccc(C)cc1)c1ccc(C)cc1)C32 (stereo not drawn) and write its reported activity at 10 µM.
**Result** -88
